Reference for the values: PubChem BioAssay AID489030

- Target Desc: Apoptotic protease-activating factor 1 (Homo sapiens) (UniProt O14727)
- Sequence (O14727 whole entry, looked up): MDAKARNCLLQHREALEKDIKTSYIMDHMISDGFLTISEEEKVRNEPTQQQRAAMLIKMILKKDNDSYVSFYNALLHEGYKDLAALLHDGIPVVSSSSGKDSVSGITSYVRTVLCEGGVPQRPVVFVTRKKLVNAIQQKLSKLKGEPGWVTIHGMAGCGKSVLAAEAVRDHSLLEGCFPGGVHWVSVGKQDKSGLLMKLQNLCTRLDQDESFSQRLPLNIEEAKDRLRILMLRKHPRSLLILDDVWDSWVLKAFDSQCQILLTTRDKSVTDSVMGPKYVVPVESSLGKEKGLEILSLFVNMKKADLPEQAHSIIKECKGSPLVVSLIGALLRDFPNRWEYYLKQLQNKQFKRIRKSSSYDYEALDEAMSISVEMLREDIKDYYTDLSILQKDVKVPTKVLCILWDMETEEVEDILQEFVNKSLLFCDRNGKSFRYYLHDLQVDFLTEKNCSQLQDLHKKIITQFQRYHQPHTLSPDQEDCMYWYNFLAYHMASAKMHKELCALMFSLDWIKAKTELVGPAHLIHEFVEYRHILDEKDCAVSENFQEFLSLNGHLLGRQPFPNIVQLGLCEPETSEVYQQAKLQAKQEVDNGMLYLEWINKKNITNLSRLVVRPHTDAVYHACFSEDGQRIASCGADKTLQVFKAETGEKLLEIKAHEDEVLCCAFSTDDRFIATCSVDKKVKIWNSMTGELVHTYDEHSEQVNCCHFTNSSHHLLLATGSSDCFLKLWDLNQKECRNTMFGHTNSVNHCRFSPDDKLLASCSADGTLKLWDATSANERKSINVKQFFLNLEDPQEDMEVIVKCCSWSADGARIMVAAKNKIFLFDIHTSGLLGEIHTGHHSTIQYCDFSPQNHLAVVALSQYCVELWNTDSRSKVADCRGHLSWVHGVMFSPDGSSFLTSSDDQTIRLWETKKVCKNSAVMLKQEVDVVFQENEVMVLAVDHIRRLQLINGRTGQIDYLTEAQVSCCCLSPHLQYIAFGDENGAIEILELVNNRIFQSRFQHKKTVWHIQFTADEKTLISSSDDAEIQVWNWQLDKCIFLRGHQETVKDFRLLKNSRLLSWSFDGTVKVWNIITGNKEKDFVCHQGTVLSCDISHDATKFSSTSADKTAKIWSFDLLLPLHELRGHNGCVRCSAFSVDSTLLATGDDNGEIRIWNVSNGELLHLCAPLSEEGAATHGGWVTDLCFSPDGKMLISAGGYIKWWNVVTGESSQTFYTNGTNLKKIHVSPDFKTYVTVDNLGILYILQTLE
- Measurement Notes: blockers of Apaf-1-driven caspase-3 activation – biochemical, DEVD-Rh110 fluorescence, uHTS, primary screen (AID 489030);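 note: plate controls were DMSO wells for no effect and DEVD-CHO caspase inhibitor wells for full effect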
- Condition Context: reconstituted apoptosome caspase-3 activity, at 20 µM, stronger effect = higher value
About 2,400 (0.73%) of roughly 330,000 compounds were called active. The full list was thinned out, with actives kept by preference.
For each of the compounds below, state its inhibition.
Could you give me the number in %? Just the number is fine.

**Query** Any idea what inhibition was measured for `O=C(O)COCC(=O)NCc1csc2ccc(Cl)cc12` ?
**Result** -14.6

**Query** Consider the compound shown here: `O=C(CN1CCCCCC1)Nc1c(Cl)cc(Cl)cc1Cl` What is its recorded inhibition?
**Result** -0.605

**Query** What does the record list as inhibition for `CC1=NN(c2ccc(Cl)c(C(=O)O)c2)C(=O)/C1=C/c1ccc(-c2ccccc2[N+](=O)[O-])o1` ?
**Result** 42.9

**Query** Would you kindly share the measured inhibition for `CCC(=O)Nc1ccc(Nc2nc(Cl)nc(Nc3ccc(NC(=O)CC)cc3)n2)cc1` ?
**Result** -8.45

**Query** I have this compound here, `COC1=C(N2CCOCC2)C(=O)c2ccccc2C1=O` , and I need its recorded inhibition.
**Result** 65.8

**Query** Given the entry `O=C(Nc1ccc(N2CCOCC2)cc1)c1ccc(-c2ccccc2[N+](=O)[O-])o1` , report its measured inhibition.
**Result** 2.89

**Query** Would you mind telling me what inhibition value was observed for `CCOc1ccc(C(=O)CCN2CCOCC2)cc1` ?
**Result** 2.64

**Query** Any idea what inhibition was measured for `COc1ccc(C(=O)NNc2cc(C)nc(NNC(=O)c3ccc(OC)cc3)n2)cc1` ?
**Result** 8.09

**Query** Entry under review: `O=C(CS(=O)(=O)c1cn(Cc2cccc(F)c2)c2ccccc12)N1CCCCC1` . Reported inhibition?
**Result** 18.4

**Query** Return reported inhibition; argument: `COc1ccc(N(CCC(=O)NCCc2ccccc2)S(=O)(=O)c2ccc(C)cc2C)cc1`
**Result** 54.9

**Query** Recorded inhibition of `O=C(NCC1CC1)c1onc(CSc2ccccc2)c1C(=O)NCC1CC1` , please.
**Result** 14.7

**Query** Quick check: inhibition of `O=Cc1c(Cl)cccc1Cl` ?
**Result** -4.79

**Query** Request the reported inhibition associated with `CC(C)Cc1nnc(NC(=O)CCNC(=O)c2ccccc2Cl)s1`
**Result** 12

**Query** Which inhibition reading was recorded for the compound `O=C1C(Cl)=C(N2CCOCC2)C(=O)N1c1ccccc1` ?
**Result** -17.1

**Query** # query: inhibition of entry CC1CC(C)(C)NC(=S)N1CCC(=O)N1CCN(Cc2ccccc2)CC1 (stereo unspecified)
**Result** -1.32

**Query** Look up inhibition: Cc1cc(C)c(NC(=O)C[N+](C)(C)CC(O)COc2cccc3ccccc23)c(C)c1 (stereo unspecified)
**Result** 12.4

**Query** Look up inhibition: `COc1cccc(-n2c(N)cc(=O)nc2SCC(=O)Nc2cc(C)on2)c1`
**Result** 0.469

**Query** Look up inhibition: `O=S(=O)(Nc1ccc(O)c2ccccc12)c1ccc(OC(F)(F)F)cc1`
**Result** 60.9

**Query** Query (compound): `CCOc1ccc(N(CC(=O)NCCc2ccc(OC)cc2)S(C)(=O)=O)cc1` ; field requested: inhibition
**Result** 5.5

**Query** For the compound `CCOc1cc(CNCCN(C)C)c(Cl)cc1OCC(=O)NCCc1ccccc1` , what inhibition is on record?
**Result** 13.1

**Query** If you can, please state the reported inhibition value of `CC(=O)Nc1ccc(Nc2cc(C)nc(Nc3ccc(NC(C)=O)cc3)n2)cc1` .
**Result** 46.2

---

- Target Desc: Apoptotic protease-activating factor 1 (Homo sapiens)
- Measurement Notes: blockers of Apaf-1-driven caspase-3 activation – biochemical, DEVD-Rh110 fluorescence, uHTS, primary screen (AID 489030);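 note: plate controls were DMSO wells for no effect and DEVD-CHO caspase inhibitor wells for full effect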
- Condition Context: reconstituted apoptosome caspase-3 activity, at 20 µM, stronger effect = higher value
Among all 330,000 compounds or so, about 2,400 (0.73%) were called active. The full list was thinned out, with actives kept by preference.
Please provide measured inhibition for the entries that follow.
Give a bare numeral; the unit % is implied.

**Query** Item `O=C(CCCN1CCc2[nH]c3ccc(F)cc3c2C1)c1ccc(F)cc1` has what recorded inhibition?
**Result** 65

**Query** Field request: inhibition | item: `O=C(NCCCN1CCOCC1)c1ccccc1NS(=O)(=O)c1ccc(F)cc1`
**Result** -4.73

**Query** Report inhibition for `Cc1[nH]n(-c2ccccc2)c(=O)c1/C=N/NC(=O)c1ccoc1C` please.
**Result** 61.5

**Query** What measured inhibition goes with `COc1ccccc1CNC(=O)[C@@H]1CCCN1C(=O)[C@@H]1Cc2ccccc2CN1C(=O)OC(C)(C)C` ?
**Result** 11

**Query** Entry `CCOC(=O)c1ccc(Nc2cc3ccccc3c(=O)[nH]2)cc1` : reported inhibition = ?
**Result** 92.5

**Query** Query: inhibition; subject: `NC(=O)c1ccc(-c2csnn2)cc1`
**Result** -3.94

**Query** I have this compound here, `O=C1CN(C(=O)COC(=O)/C=C/c2ccc(F)cc2)c2ccccc2N1` , and I need its recorded inhibition.
**Result** 5.3

**Query** Need inhibition of `COc1ccc(/C=C2/C(=O)OCc3cc(OC)c(OC)cc32)c(OC)c1` , thanks.
**Result** 6.28

**Query** Tell me the measured inhibition of `COc1ccc(-c2nc3cnccn3c2NC2CCCCC2)cc1-c1cccc(Cl)c1` , please.
**Result** 36.9

**Query** # input compound: `ON=C1/C(=N\O)CC2(C/C1=N/O)OCCO2` ; wanted: its inhibition
**Result** -16

**Query** Report inhibition for COc1ccc(NC(=O)c2cccc3c2C(=O)N(CC2CCCO2)C3)cc1OC (configuration not stated) please.
**Result** 2.96

**Query** Please look up its inhibition: `O=C(Cn1nc(CNc2ccc(Cl)cc2)[n+]2c1CCCCC2)c1ccc(Cl)cc1`
**Result** 15.2

---

- Target Desc: Apoptotic protease-activating factor 1 (Homo sapiens) (UniProt O14727)
- Measurement Notes: blockers of Apaf-1-driven caspase-3 activation – biochemical, DEVD-Rh110 fluorescence, uHTS, primary screen (AID 489030);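 note: plate controls were DMSO wells for no effect and DEVD-CHO caspase inhibitor wells for full effect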
- Condition Context: reconstituted apoptosome caspase-3 activity, at 20 µM, stronger effect = higher value
About 2,400 (0.73%) of roughly 330,000 compounds were called active. The sample as a whole holds a higher share of actives than the screen did.
Exercise: state measured inhibition for each of the compounds provided.
Numbers only; they are read as %.

**Query** Query (compound): `Cc1ccsc1/C=N/NC(=O)Cc1cc(=O)[nH][nH]1` ; field requested: inhibition
**Result** 58.3

**Query** Record request: inhibition value, item Cc1cc(C)c(NC(=S)N2CCCC2C(=O)O)c(C)c1 (stereo not drawn)
**Result** -0.801

**Query** Consider the compound shown here: COc1cccc(C(=O)NCCS(=O)(=O)NCC2CCCO2)c1 (stereo not drawn) What is its recorded inhibition?
**Result** -2.68

---

- Target Desc: Apoptotic protease-activating factor 1 (Homo sapiens) (UniProt O14727)
- Measurement Notes: blockers of Apaf-1-driven caspase-3 activation – biochemical, DEVD-Rh110 fluorescence, uHTS, primary screen (AID 489030);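 note: plate controls were DMSO wells for no effect and DEVD-CHO caspase inhibitor wells for full effect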
- Condition Context: reconstituted apoptosome caspase-3 activity, at 20 µM, stronger effect = higher value
About 2,400 (0.73%) of roughly 330,000 compounds were called active. This is one part of a sample in which actives are shown more often than they occur.
inhibition vs 10%: at or above is Yes, below is No.

**Query** Textbook exercise: given the entry `CCCCN(C(=O)C1=NN(c2cc(C)ccc2C)C(=O)CC1)c1c(N)n(CCC)c(=O)[nH]c1=O` , state whether its inhibition is greater than or equal to 10%.
**Result** No

**Query** Is the recorded value of inhibition equal to or greater than 10% for this compound? `COC(=O)c1ccccc1NC(=O)CN(Cc1ccc(Cl)cc1)S(C)(=O)=O`
**Result** No

**Query** Entry COCC(C)OC(=O)c1c(N)n(CCCN2CCOCC2)c2nc3ccccc3nc12 (stereo unspecified) : is its inhibition no less than 10%?
**Result** Yes

**Query** Item `O=[N+]([O-])c1ccc(N(CCO)Cc2ccccc2)c([N+](=O)[O-])c1` with inhibition of 10% or above?
**Result** No

**Query** Threshold query (inhibition >= 10%) on `Cc1ccc(N=C2NC(=O)/C(=C/C=C/c3ccco3)S2)cc1C`
**Result** Yes

**Query** Please tell me: is the compound `CC(C)(C)NC(=O)CSC(=Nc1ccccc1F)NC#N` at or over 10% in terms of inhibition?
**Result** No

**Query** Given the entry `CCN(CC)CCOc1ccc2c(c1)C(=NNC(=O)c1ccccn1)c1cc(OCCN(CC)CC)ccc1-2` , answer whether its inhibition meets or surpasses 10%.
**Result** Yes

**Query** Determine whether this compound has inhibition no lower than 10%: `O=C(NCc1cccs1)c1cc(-c2ccccn2)nc2ccc(Br)cc12`
**Result** No

**Query** Test whether the compound Cc1ccc2c(c1)C1CN(C)CCC1N2S(=O)(=O)c1cccc(F)c1 (stereo unspecified) records inhibition of 10% or higher.
**Result** No

**Query** I'd appreciate it if you could say whether Cc1ccc2c(c1)C1CN(C)CCC1N2C(=S)Nc1ccc(OC(F)F)cc1 (stereo unspecified) has inhibition at least equal to 10%.
**Result** No

**Query** Does the compound `CCOC(=O)COn1c(=O)c(-c2ccc(OCC)cc2)[n+]([O-])c2ccccc21` have recorded inhibition that is 10% or more?
**Result** No

**Query** Given the entry `C/C(=N\NC(=O)c1ccccc1F)c1ccccn1` , answer whether its inhibition meets or surpasses 10%.
**Result** No

**Query** Is inhibition for `Cc1cnc(NC(=O)c2ccccn2)s1` at or above 10%?
**Result** No

**Query** Would you say `CCCCCCc1cc2cc(-c3nnc(-c4ccccc4)o3)c(=O)oc2cc1O` shows inhibition at minimum 10%?
**Result** Yes

**Query** // inclusive: inhibition at least 10%? input: `COc1cnc(SCc2ccc(Cl)c(Cl)c2)nc1Cl`
**Result** No

**Query** Is inhibition for `CN1C(=O)/C(=C/c2ccco2)SC1=Nc1cccc(C(=O)O)c1` at or above 10%?
**Result** Yes
